The entries below come with measured Plant response rating, Waterhemp values attached.
Tested on: waterhemp (common waterhemp, Amaranthus rudis)
experimentSummary: Test C preemergence
Assay type: in vivo
setupConditions: 125 g ai/ha, scale 0 to 100, 0 no effect, 100 complete control
The response must contain the number and no unit.

A selection of reference data follows.
>  <molecule>
CN1C[C@H](c2ccc(F)c(F)c2)[C@@H](C(=O)Nc2ccccc2F)C1=O [Compound 596]

>  <Plant response rating, Waterhemp>
25

$$$$
>  <molecule>
O=C1NCC(c2cccc(OC(F)(F)C(F)F)c2)C1C(=O)Nc1ccc(F)c(F)c1F (racemic) [Compound 698]

>  <Plant response rating, Waterhemp>
85

$$$$
>  <molecule>
CN1CC(c2ccc(F)c(F)c2)C(C(=O)Nc2ccccc2C(F)(F)F)C1=O (centres unmarked) [Compound 641]

>  <Plant response rating, Waterhemp>
45

$$$$

Record CN1CC(c2cccc(OC(F)(F)C(F)F)c2)C(C(=O)Nc2ccc(F)c(F)c2F)C1=O (centres unmarked) [Compound 429] , field Plant response rating, Waterhemp: 90

get_value(item= O=C1NCC(c2cccc(OC(F)(F)C(F)F)c2)C1C(=O)Nc1cccc(F)c1F (racemic) [Compound 697] , readout=Plant response rating, Waterhemp) returns 85

----------
Entries and their pest or weed control at 500 g/ha
Tested on: Kochia (Kochia scoparia)
experimentSummary: Test A preemergence
Type: in vivo
setupConditions: Bassia scoparia, pre-emergence, 240 h, 500 g ai/ha, preemergence; visual injury rating about 10 d after treatment, 0 to 100 scale (0 no effect, 100 complete control); read-out: Kochia plant response rating
Give the number; % is assumed, so skip it.

>  <compound>
COc1ccc([C@H]2CN(C)C(=O)[C@@H]2C(=O)Nc2ccccc2F)cc1F

>  <unitAbbrev>
%

>  <number>
20

$$$$
>  <compound>
CCOc1cccc([C@H]2CNC(=O)[C@@H]2C(=O)Nc2cccc(F)c2F)c1

>  <unitAbbrev>
%

>  <number>
60

$$$$
>  <compound>
C/C=C/N1C[C@@H](c2cccc(C(F)(F)F)c2)[C@H](C(=O)Nc2ccccc2F)C1=O (racemic)

>  <unitAbbrev>
%

>  <number>
0

$$$$

Reported pest or weed control at 500 g/ha of Cc1ccc([C@H]2CN(C)C(=O)[C@@H]2C(=O)Nc2ccccc2S(C)(=O)=O)cc1Cl : 60

So for Cc1ccc([C@H]2CNC(=O)[C@@H]2C(=O)Nc2ccccc2S(C)(=O)=O)cc1C , the logged pest or weed control at 500 g/ha turned out to be 90

Briefly, pest or weed control at 500 g/ha measured for COc1ccc([C@H]2CN(C)C(=O)[C@@H]2C(=O)Nc2cccc(F)c2F)cc1C(F)(F)F : 70

Sample Cc1cc([C@H]2CN(C)C(=O)[C@@H]2C(=O)Nc2ccc(F)c(F)c2F)ccc1Cl ; pest or weed control at 500 g/ha observed: 90

----------
System: Kochia (Kochia scoparia)
experimentSummary: Test A preemergence
Format: in vivo
setupConditions: Preemergence, 500 g ai/ha, visual injury approx. 10 d
observedProperty: Kochia plant response rating (0 to 100 scale, 0 is no effect, 100 is complete control)
I only need the number, thanks.

>  <compound>
CC(C)c1ccc(C2CNC(=O)C2C(=O)Nc2cccc(F)c2F)cc1 (stereo not drawn)

>  <number>
40

$$$$
>  <compound>
O=C1NCC(c2cccc(OC(F)F)c2)C1C(=O)Nc1ccccc1OC(F)F (stereo not drawn)

>  <number>
80

$$$$
>  <compound>
O=C1NCC(c2cccc(OC(F)F)c2)C1C(=O)Nc1ccc(F)cc1F (stereo not drawn)

>  <number>
80

$$$$
>  <compound>
O=C1NCC(c2c(F)cccc2F)C1C(=O)Nc1cccc(F)c1F (racemic)

>  <number>
0

$$$$

Input CN1CC(c2cccc(C(F)(F)F)c2)C(C(=O)Nc2ccccc2[N+](=O)[O-])C1=O (stereo not drawn) . Output Kochia plant response rating (0 to 100 scale, 0 is no effect, 100 is complete control): 80

Value of measured Kochia plant response rating (0 to 100 scale, 0 is no effect, 100 is complete control) for the entry CC(C)Oc1cccc(C2CNC(=O)C2C(=O)Nc2ccc(F)c(F)c2F)c1 (stereo not drawn) : 90
